Biological target: acetylcholinesterase (Electrophorus electricus (Electric eel) (Gymnotus electricus))
Sequence (O42275 whole entry, looked up): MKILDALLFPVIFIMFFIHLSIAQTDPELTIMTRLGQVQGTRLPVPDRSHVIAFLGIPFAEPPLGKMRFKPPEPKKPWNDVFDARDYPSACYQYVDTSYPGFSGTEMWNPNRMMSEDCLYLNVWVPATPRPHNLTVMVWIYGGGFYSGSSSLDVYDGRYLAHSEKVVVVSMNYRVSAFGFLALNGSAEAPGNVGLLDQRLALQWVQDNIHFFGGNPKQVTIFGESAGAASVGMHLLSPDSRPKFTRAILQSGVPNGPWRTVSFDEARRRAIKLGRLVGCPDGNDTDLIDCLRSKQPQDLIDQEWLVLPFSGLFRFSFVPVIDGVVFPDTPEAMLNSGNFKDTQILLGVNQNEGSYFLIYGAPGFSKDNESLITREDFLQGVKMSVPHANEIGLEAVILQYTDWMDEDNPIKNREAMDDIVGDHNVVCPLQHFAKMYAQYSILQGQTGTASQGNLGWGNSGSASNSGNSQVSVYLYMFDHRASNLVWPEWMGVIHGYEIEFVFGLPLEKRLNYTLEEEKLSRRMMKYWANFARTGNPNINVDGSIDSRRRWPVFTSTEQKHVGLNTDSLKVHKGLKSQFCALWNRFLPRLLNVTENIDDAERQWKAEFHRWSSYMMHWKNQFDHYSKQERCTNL
pIC50: −log10 of the molar value.
Classify by measured pIC50: t if it is equal to or exceeds 6, f if it is smaller.

compound	system tested	category label
COC(=O)C1=C(C)Nc2nc3c(c(N)c2C1c1cccc(Cl)c1Cl)CC(C)CC3 (centres unmarked) [Compound S27]	acetylcholinesterase (Electrophorus electricus (Electric eel) (Gymnotus electricus))	t
CCOC(=O)C1=C(C)Nc2nc3c(c(N)c2C1c1ccc(C(F)(F)F)cc1)CC(C)CC3 (centres unmarked) [Compound S2]	acetylcholinesterase (Electrophorus electricus (Electric eel) (Gymnotus electricus))	t

Query string: hey, is pIC50 for this one >= 6? C#CCOC(=O)C1=C(C)Nc2nc3c(c(N)c2C1c1cccc(F)c1)CC(C)(C)CC3 (centres unmarked) [Compound S36]
Result string: f

Query string: hey, is pIC50 for this one >= 6? COC(=O)C1=C(C)Nc2nc3c(c(N)c2C1c1cccc([N+](=O)[O-])c1)CC(C)(C)CC3 (centres unmarked) [Compound S30]
Result string: f

Query string: hey, is pIC50 for this one >= 6? CCOC(=O)C1=C(C)Nc2nc3c(c(N)c2C1c1cccc([N+](=O)[O-])c1)CC(F)(F)CC3 (centres unmarked) [Compound S19]
Result string: t

Query string: hey, is pIC50 for this one >= 6? C#CCOC(=O)C1=C(C)Nc2nc3c(c(N)c2C1c1cccc([N+](=O)[O-])c1)CC(C)(C)CC3 (centres unmarked) [Compound S37]
Result string: f

Query string: hey, is pIC50 for this one >= 6? CC1=C(C(=O)OC(C)C)C(c2ccccc2Cl)c2c(nc3c(c2N)CC(C)(C)CC3)N1 (centres unmarked) [Compound S32]
Result string: f

Query string: hey, is pIC50 for this one >= 6? CCOC(=O)C1=C(C)Nc2nc3c(c(N)c2C1c1cccc([N+](=O)[O-])c1)CC(C)(C)CC3 (centres unmarked) [Compound S31]
Result string: f

Query string: hey, is pIC50 for this one >= 6? CCOC(=O)C1=C(C)Nc2nc3c(c(N)c2C1c1ccccc1OC)CC(C)CC3 (centres unmarked) [Compound S28]
Result string: t

Query string: hey, is pIC50 for this one >= 6? COC(=O)C1=C(C)Nc2nc3c(c(N)c2C1c1cccc([N+](=O)[O-])c1)CCC(C)=C3 (centres unmarked) [Compound S18]
Result string: t

Query string: hey, is pIC50 for this one >= 6? CCOC(=O)C1=C(C)Nc2nc3c(c(N)c2C1c1cccc(F)c1)CC(C)(C)CC3 (centres unmarked) [Compound S34]
Result string: f

* * *

System: L-type Ca2+ channel
Assay: Blocking of L-type Ca2+ channel by high content screening analyzer, KCl-induced calcium ion influx in SH-SY5Y cells (Fluo-4-AM)
Conditions: 50 μM compound
endpoint name: Inhibition rate of KCl-induced calcium ion influx (%)
Supply the numeric figure in %, leaving out any unit text.

These solved cases illustrate the format of a correct answer.
compound	uom	recorded value
CC1=C(C(=O)OC(C)C)C(c2ccccc2Cl)c2c(nc3c(c2N)CC(C)(C)CC3)N1 (centres unmarked) [Compound S32]	%	91.10
C=CCOC(=O)C1=C(C)Nc2nc3c(c(N)c2C1c1cccc([N+](=O)[O-])c1)CC(C)(C)CC3 (centres unmarked) [Compound S5]	%	62.43
CC1=C(C(=O)OC2CCC2)C(c2ccccc2F)c2c(nc3c(c2N)CC(C)(C)CC3)N1 (centres unmarked) [Compound S9]	%	85.01
CCOC(=O)C1=C(C)Nc2nc3c(c(N)c2C1c1ccc(C(F)(F)F)cc1)CC(C)CC3 (centres unmarked) [Compound S2]	%	94.01
CC1=C(C(=O)OC(C)C)C(c2cccc(F)c2)c2c(nc3c(c2N)CC(C)(C)CC3)N1 (centres unmarked) [Compound S3]	%	86.82

Query string: Given the entry CCC1=C(C(=O)OC)C(c2cccc([N+](=O)[O-])c2)c2c(nc3c(c2N)CC(C)(C)CC3)N1 (centres unmarked) [Compound S25] , report its measured Inhibition rate of KCl-induced calcium ion influx.
Result string: 63.52

Query string: Given the entry CCOC(=O)C1=C(C)Nc2nc3c(c(N)c2C1c1cccc([N+](=O)[O-])c1)CC(Cl)(Cl)CC3 (centres unmarked) [Compound S20] , report its measured Inhibition rate of KCl-induced calcium ion influx.
Result string: 99.27

Query string: Given the entry CC1=C(C(=O)OC(C)C)C(c2cncnc2)c2c(nc3c(c2N)CC(C)(C)CC3)N1 (centres unmarked) [Compound S26] , report its measured Inhibition rate of KCl-induced calcium ion influx.
Result string: 41.41
